Exercise: for every item that follows, state its recorded inhibition at 2 µM.
Biological target: Aromatase (Homo sapiens, UniProt P11511)
Experiment: Percent inhibition at 2 uM against aromatase protein from human placental microsomes using [1-beta-3H]-androstenedione
Answer as a quantity: numeral, then unit.

Any idea what its inhibition at 2 µM is? The molecule is C[C@]12CC[C@H](O)[C@@H](O)[C@H]1CC[C@@H]1[C@@H]2CC[C@]2(C)C(=O)CC[C@@H]12
10.1%

Try this molecule too: C[C@]12CC[C@@H](O)C(=O)[C@@H]1CC[C@@H]1[C@@H]2CC[C@]2(C)C(=O)CC[C@@H]12
83.3%

Try this molecule too: C[C@]12CC[C@H]3O[C@H]3[C@@H]1CC[C@@H]1[C@@H]2CC[C@]2(C)C(=O)CC[C@@H]12
96.4%

Try this molecule too: C[C@]12CCC3C(CC[C@H]4[C@@H](O)[C@H](O)CC[C@]34C)C1CCC(=O)O2 (some centres undefined)
8.1%

* * *

Exercise: for every item that follows, state its recorded pKi.
Biological target: Aromatase (Homo sapiens)
Formally, pKi is defined as -log10 of the concentration c, with c in mol/L.

Any idea what its pKi is? The compound is C[C@]12CC[C@@H](O)C(=O)[C@@H]1CC[C@@H]1[C@@H]2CC[C@]2(C)C(=O)CC[C@@H]12
6.83

Try this compound too: C[C@]12CC[C@H]3O[C@H]3[C@@H]1CC[C@@H]1[C@@H]2CC[C@]2(C)C(=O)CC[C@@H]12
7.42

Try this compound too: C[C@]12CCC3C(CC[C@H]4C=CCC[C@]34C)C1CCC2=O (stereo partly drawn)
7.30

* * *

Molecular target: Aromatase (Homo sapiens)
Sequence (P11511 whole entry): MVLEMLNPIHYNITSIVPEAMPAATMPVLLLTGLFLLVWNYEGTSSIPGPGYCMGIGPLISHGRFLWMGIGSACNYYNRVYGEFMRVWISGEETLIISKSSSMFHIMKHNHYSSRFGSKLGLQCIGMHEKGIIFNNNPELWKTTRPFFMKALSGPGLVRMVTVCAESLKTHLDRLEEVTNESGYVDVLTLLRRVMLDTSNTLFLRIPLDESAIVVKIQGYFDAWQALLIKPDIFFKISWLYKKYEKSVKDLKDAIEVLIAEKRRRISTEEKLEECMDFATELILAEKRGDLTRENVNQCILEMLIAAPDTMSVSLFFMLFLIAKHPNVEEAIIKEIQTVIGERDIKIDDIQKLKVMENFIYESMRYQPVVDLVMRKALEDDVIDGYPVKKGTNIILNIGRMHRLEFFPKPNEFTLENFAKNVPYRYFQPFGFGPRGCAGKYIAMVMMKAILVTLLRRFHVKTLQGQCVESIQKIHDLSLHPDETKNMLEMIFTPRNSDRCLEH
Assay: Ratio of Michaelis-Menten constant and inhibition constant for aromatase enzyme; Competitive inhibition
Exercise: for every item that follows, state its recorded Km/Ki.
The answer should be written as a number, with no unit following it.

Any idea what its Km/Ki is? The compound is C[C@]12CCC(=O)C(O)=C1CCC1C2CC[C@]2(C)OC(=O)CCC12 (some centres undefined)
0.087

Try this compound too: C[C@]12CC[C@H]3O[C@H]3[C@@H]1CC[C@@H]1[C@@H]2CC[C@]2(C)C(=O)CC[C@@H]12
1.51

Try this compound too: C[C@]12CC[C@@H](O)C(=O)[C@@H]1CC[C@@H]1[C@@H]2CC[C@]2(C)C(=O)CC[C@@H]12
0.39

Try this compound too: C[C@]12CCC3C(CC[C@H]4C=CCC[C@]34C)C1CCC2=O (some centres undefined)
1.15
